Tested on: Plasmodium falciparum
Experiment description: Antimalarial activity against Plasmodium falciparum W2 after 72 hr by LDH assay
Type: functional, organism-based
Experimental setup: W2, 72 h
Experimental endpoint: pEC50
Lab note: report pEC50 as minus log10 of the concentration in molar units, number only.

>>> df
                                   compound           study_system  numeric_result
0  CC(=O)OCc1nc(CCC(=O)CSCCCc2ccccc2)sc1CCc1ccccc1  Plasmodium falciparum            4.60
1  O=C(/C=C/c1nc(CCc2ccccc2)c(CCCO)s1)CSCCCc1ccccc1  Plasmodium falciparum            4.86

--- query ---
### Prompt Find the recorded pEC50 belonging to CCOC(=O)CCc1sc(NC(=O)CSCCCc2ccccc2)nc1/C=C/c1ccccc1 and report it.
### Response 4.69

----------
Study system: Falcipain 2 (Plasmodium falciparum, UniProt Q9N6S8)
Experiment description: Inhibition of recombinant Plasmodium falciparum falcipain-2 using Z-Leu-Arg-AMC as substrate compound treated for 30 min before substrate addition by fluorescence assay
Form field: IC50 (one value per entry).
Report the figure in µM without appending any unit label.

>>> print(df.to_string())
                            chemical_smiles  unit_name  numeric_result
0  O=CCCc1sc(CCC(=O)CSCCCc2ccccc2)nc1CCc1ccccc1         µM            39.1

--- query ---
### Prompt Find the recorded IC50 belonging to NC(=O)CCc1sc(NC(=O)CSCCCc2ccccc2)nc1/C=C/c1ccccc1 and report it.
### Response 15.3

----------
Tested on: Plasmodium falciparum
Experiment description: Antimalarial activity against Plasmodium falciparum W2 after 72 hr by LDH assay
Format: functional, organism-based
Experimental setup: W2, 72 h
Experimental endpoint: pEC50
Lab note: report pEC50 as minus log10 of the concentration in molar units, number only.

Recorded pEC50, per entry:
>>> print(df.to_string())
                                   compound  experimental_endpoint  numeric_result
0  O=C(CCc1nc(CCc2ccccc2)c(CCCO)s1)CSCCCc1ccccc1                  pEC50            4.72
1  CC(=O)NCCCc1sc(CCC(=O)CSCCCc2ccccc2)nc1CCc1ccccc1                  pEC50            4.77
2  CCN(CC)CCCC(C)Nc1ccnc2cc(Cl)ccc12 (centres undefined)                  pEC50            6.44

--- query ---
### Prompt Entry C[C@@H]1CC[C@H]2[C@@H](C)C(=O)O[C@@H]3O[C@@]4(C)CC[C@@H]1[C@]32OO4 , system Plasmodium falciparum: what pEC50 was measured?
### Response 7.64

----------
Study system: Falcipain 2 (Plasmodium falciparum, UniProt Q9N6S8)
Sequence (Q9N6S8 whole entry): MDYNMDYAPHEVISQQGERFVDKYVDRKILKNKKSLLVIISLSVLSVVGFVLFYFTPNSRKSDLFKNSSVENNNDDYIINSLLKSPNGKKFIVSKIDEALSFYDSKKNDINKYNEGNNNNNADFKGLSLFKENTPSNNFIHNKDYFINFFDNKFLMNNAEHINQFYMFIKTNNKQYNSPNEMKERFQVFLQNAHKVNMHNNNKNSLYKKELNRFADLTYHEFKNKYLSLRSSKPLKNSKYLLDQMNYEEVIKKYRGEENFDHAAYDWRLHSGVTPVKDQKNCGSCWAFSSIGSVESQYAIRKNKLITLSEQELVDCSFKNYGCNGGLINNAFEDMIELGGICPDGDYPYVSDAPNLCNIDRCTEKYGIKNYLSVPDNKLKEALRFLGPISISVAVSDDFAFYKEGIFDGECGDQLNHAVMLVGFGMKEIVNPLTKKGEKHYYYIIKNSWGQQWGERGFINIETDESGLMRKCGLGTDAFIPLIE
Experiment description: Inhibition of recombinant Plasmodium falciparum falcipain-2 using Z-Leu-Arg-AMC as substrate compound treated for 30 min before substrate addition by fluorescence assay
Experimental endpoint: IC50

>>> df
                            chemical_smiles    result
0  CC(=O)OCc1nc(CCC(=O)CSCCCc2ccccc2)sc1CCc1ccccc1   > 33 µM
1  O=C(/C=C/c1nc(CCc2ccccc2)c(CCCO)s1)CSCCCc1ccccc1  < 6.6 µM

--- query ---
### Prompt Find the recorded IC50 belonging to CC(=O)NCCCc1sc(CCC(=O)CSCCCc2ccccc2)nc1CCc1ccccc1 and report it.
### Response > 33 µM

----------
System: Plasmodium falciparum
Experiment description: Antimalarial activity against Plasmodium falciparum W2 after 72 hr by LDH assay
Assay type: functional, organism-based
Experimental setup: W2, 72 h
Form field: EC50 (one value per entry).

Recorded EC50, per entry:
                            chemical_smiles     result
0  O=C(CCc1nc(CO)c(CCc2ccccc2)s1)CSCCCc1ccccc1    > 20 µM
1  NC(=O)CCc1sc(CCC(=O)CSCCCc2ccccc2)nc1CCc1ccccc1  > 49.5 µM
2  NC(=O)CCc1sc(NC(=O)CSCCCc2ccccc2)nc1/C=C/c1ccccc1  > 51.1 µM
3                Nc1nc(CCc2ccccc2)c(CCCO)s1  > 90.7 µM

### Prompt Find the recorded EC50 belonging to O=CCCc1sc(CCC(=O)CSCCCc2ccccc2)nc1CCc1ccccc1 and report it.
### Response > 51.1 µM
